Test Name: qHTS RealTime-Glo MT Cell Viability Assay in HEK293 cells - 8 hour (AID 1224887); also: nearly all actives have a fitted effect of over 50% in size
Setup Conditions: RealTime-Glo luminescence; series mostly up to 76.8 µM
Results filed as inconclusive are left out. Active and inactive are the calls of the source. Calls follow the shape of the dose curve; as a rule, active = well fitted cell-killing curve with a large enough effect in the repeat runs; inconclusive = weak or mixed curves, or effect the other way; inactive = flat fitted curve, though single readings scatter.
Possible outcomes: 1 (yes) for active, 0 (no) for inactive

1) O=C(Cl)c1cc(C(=O)Cl)cc(C(=O)Cl)c1	1 (yes)
2) CCCCC(=O)OCC(=O)[C@H]1[C@H](C)C[C@H]2[C@@H]3C[C@H](F)C4=CC(=O)C=C[C@]4(C)[C@@]3(F)[C@@H](O)C[C@@]21C	0 (no)
3) O=C1C(O)=C(O)C(=O)C(O)=C1O	0 (no)
4) C=C(C)C(=O)OCCO	0 (no)
5) CCOc1ccc(N=Nc2ccc(/C=C/c3ccc(N=Nc4ccc(OCC)cc4)cc3S(=O)(=O)O)c(S(=O)(=O)O)c2)cc1	0 (no)
6) CCCCc1ncc(/C=C(\Cc2cccs2)C(=O)O)n1Cc1ccc(C(=O)O)cc1	0 (no)
7) CCOCC(O)COc1ccc(NC(=O)CC[S+](C)C)cc1 (stereo unspecified)	0 (no)
8) CCN(CC)CCNC(=O)c1cc(Br)c(N)cc1OC	0 (no)
9) CCCCCCCCCCCCCCOS(=O)(=O)O	0 (no)
10) O=C1CCCCCCCCCCCC(=O)OCCO1	0 (no)
11) c1ccc(C(O[C@H]2CCCN(CCc3ccc4c(c3)OCO4)C2)c2ccccc2)cc1	0 (no)
